experiment: Pharmacokinetic study, oral and i.v. route; type: in vivo, swiss mice; settings: both sexes, Swiss, mouse, plasma, oral; mice, AUCoral×doseiv/AUCiv×Doseoral; read-out: Absolute bioavailability (F)
endpoint label: bioavailability (%)
Quick reminder: number only, in %, skip the unit.

May I ask what bioavailability has been recorded for COc1ccc(C(c2[nH]c3ccccc3c2CC(=O)O)c2[nH]c3ccccc3c2CC(=O)O)cc1Oc1nc(NC2CC2)nc(NC2CC2)n1 [Compound 7] ?
70.3

----------
assay: Pharmacokinetic study, oral and i.v. route; type: in vivo, swiss mice; conditions: both sexes, Swiss, mouse, plasma, po, 20 mg/kg, mice, oral, 20 mg/kg; read-out: T ½ (converted)
endpoint label: half-life (h)
Quick reminder: number only, in h, skip the unit.

May I ask what half-life has been recorded for COc1ccc(C(c2[nH]c3ccccc3c2CC(=O)O)c2[nH]c3ccccc3c2CC(=O)O)cc1Oc1nc(NC2CC2)nc(NC2CC2)n1 [Compound 7] ?
4.26

----------
assay: Pharmacokinetic study, oral and i.v. route; assay type: in vivo, swiss mice; details: both sexes, Swiss, mouse, plasma, iv; mice, 10 mg/kg (Table 2)
endpoint label: AUC(0-t) (ng·h/mL)
Quick reminder: number only, in ng·h/mL, skip the unit.

May I ask what AUC(0-t) has been recorded for COc1ccc(C(c2[nH]c3ccccc3c2CC(=O)O)c2[nH]c3ccccc3c2CC(=O)O)cc1Oc1nc(NC2CC2)nc(NC2CC2)n1 [Compound 7] ?
358

----------
experiment: Pharmacokinetic study, oral and i.v. route; assay type: in vivo, swiss mice; settings: both sexes, Swiss, mouse, plasma, iv, 10 mg/kg, mice
endpoint label: Tmax (min)
Quick reminder: number only, in min, skip the unit.

May I ask what Tmax has been recorded for COc1ccc(C(c2[nH]c3ccccc3c2CC(=O)O)c2[nH]c3ccccc3c2CC(=O)O)cc1Oc1nc(NC2CC2)nc(NC2CC2)n1 ?
10

----------
assay: Pharmacokinetic study, oral and i.v. route; assay type: in vivo, swiss mice; conditions: both sexes, Swiss, mouse, plasma; mice, oral, 20 mg/kg
endpoint label: Cmax
Answer format: value, then unit.

May I ask what Cmax has been recorded for COc1ccc(C(c2[nH]c3ccccc3c2CC(=O)O)c2[nH]c3ccccc3c2CC(=O)O)cc1Oc1nc(NC2CC2)nc(NC2CC2)n1 [Compound 7] ?
107 ng/mL

----------
assay: Pharmacokinetic study, oral and i.v. route; type: in vivo, swiss mice; conditions: both sexes, Swiss, mouse, plasma, po, 20 mg/kg, mice, 20 mg/kg (Table 2)
endpoint label: Tmax (h)
Quick reminder: number only, in h, skip the unit.

May I ask what Tmax has been recorded for COc1ccc(C(c2[nH]c3ccccc3c2CC(=O)O)c2[nH]c3ccccc3c2CC(=O)O)cc1Oc1nc(NC2CC2)nc(NC2CC2)n1 ?
2

----------
assay: Pharmacokinetic study, oral and i.v. route; type: in vivo, swiss mice; settings: both sexes, Swiss, mouse, plasma, iv; mice, 10 mg/kg
endpoint label: Cmax (ng/mL)
Quick reminder: number only, in ng/mL, skip the unit.

May I ask what Cmax has been recorded for COc1ccc(C(c2[nH]c3ccccc3c2CC(=O)O)c2[nH]c3ccccc3c2CC(=O)O)cc1Oc1nc(NC2CC2)nc(NC2CC2)n1 ?
332

----------
experiment: Pharmacokinetic study, oral and i.v. route; assay type: in vivo, swiss mice; settings: both sexes, Swiss, mouse, plasma, iv; mice, 10 mg/kg
endpoint label: AUC (ng·h/mL)
Quick reminder: number only, in ng·h/mL, skip the unit.

May I ask what AUC has been recorded for COc1ccc(C(c2[nH]c3ccccc3c2CC(=O)O)c2[nH]c3ccccc3c2CC(=O)O)cc1Oc1nc(NC2CC2)nc(NC2CC2)n1 [Compound 7] ?
358
